Quick list: growth at 10 µM per entry.
system: SNB-19; assay: Growth inhibition of human SNB19 cells assessed as growth percentage at 10 uM incubated for 48 hrs by sulforhodamine B assay relative to control; assay type: functional; settings: SNB-19, 48 h, read-out: Activity
Write down the numeric answer in % and omit the unit.

Sample answers from the record:
CC(=O)C1=C(C)NC(=S)NC1c1ccc2c(c1)OCO2 (racemic)
98.9
CC1=C(C(=O)OCC(C)C)C(c2ccc3c(c2)OCO3)NC(=S)N1 (racemic)
103

--- query ---
(Q) What value of growth at 10 µM has been reported for the following compound? CC1=C(C(=O)c2ccccc2)C(c2ccc3c(c2)OCO3)NC(=O)N1 (racemic)
(A) 101
